Values compiled from paper PMC2009384.

System: newborn Swiss mice
assayName: Experiment II: carcinogenicity in newborn mice, chrysene, 7-methylbenz(a)anthracene and K region epoxides (s.c. injection, tumour incidence to 70-75 weeks)
recordedConditions: males; 100 µg per treatment, 3 treatments
Provide the reported No. of mice examined at p.m. at termination of experiment (70-75th week) with lung tumours of each item.

Entry under test: c1ccc2c(c1)-c1ccccc1C1OC21 (centres unmarked) [phenanthrene 9,10-oxide] . Its No. of mice examined at p.m. at termination of experiment (70-75th week) with lung tumours was 2

Entry under test: c1ccc2c(c1)ccc1c3ccccc3ccc21 [Chrysene, reference compound] . Its No. of mice examined at p.m. at termination of experiment (70-75th week) with lung tumours was 1

Entry under test: Cc1c2c(cc3ccccc13)-c1ccccc1C1OC21 (centres unmarked) [7-Methylbenz(a)anthracene 5,6-oxide] . Its No. of mice examined at p.m. at termination of experiment (70-75th week) with lung tumours was 2

Entry under test: Cc1c2ccccc2cc2c1ccc1ccccc12 [7-Methylbenz(a)anthracene, reference compound] . Its No. of mice examined at p.m. at termination of experiment (70-75th week) with lung tumours was 3

Entry under test: c1ccc2c(c1)-c1ccc3ccccc3c1C1OC21 (centres unmarked) [Chrysene 5,6-oxide] . Its No. of mice examined at p.m. at termination of experiment (70-75th week) with lung tumours was 0
